B1: glmS ribozyme (parent)
chain: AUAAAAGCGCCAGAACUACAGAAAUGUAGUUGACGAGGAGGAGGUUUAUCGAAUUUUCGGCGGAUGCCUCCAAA

# Variants of: B1
# test description: self-cleavage kobs at 10000 uM GlcN6P; higher = faster cleavage; RNA array
# assay conditions: with glucosamine-6-phosphate
Variants at the floor of the assay were thinned out.
endpoint: self-cleavage kobs at 10000 uM GlcN6P (s⁻¹)
Use s⁻¹ as the unit, but write only the number.

For orientation, consider the following solved cases.
# input Give the measured self-cleavage kobs at 10000 uM GlcN6P of U46A U56C .
# output 0.000424

# input Look up self-cleavage kobs at 10000 uM GlcN6P for this variant: A14U U69A
# output 0.000122

# input Any idea what its self-cleavage kobs at 10000 uM GlcN6P is? The variant is G29U U55A U69A
# output 4.12e-05

# input Looking for the measured self-cleavage kobs at 10000 uM GlcN6P of A42G U65A , can you help?
# output 0.00423

# input # query: self-cleavage kobs at 10000 uM GlcN6P of entry A12U G40A U45C
# output 0.00175

---
# input What value of self-cleavage kobs at 10000 uM GlcN6P has been reported for the following variant? G40U A42U
# output 9.45e-05

# input Return reported self-cleavage kobs at 10000 uM GlcN6P; argument: U31A G37A
# output 0.000939

# input I would be grateful if you could share the reported self-cleavage kobs at 10000 uM GlcN6P for C50U U55G .
# output 4.07e-05

# input Consider the variant shown here: C11A U54A U55G What is its recorded self-cleavage kobs at 10000 uM GlcN6P?
# output 0.000124

# input So what does the record say about self-cleavage kobs at 10000 uM GlcN6P for A12G U45G ?
# output 0.000386

# input // lookup self-cleavage kobs at 10000 uM GlcN6P for A12G A14G
# output 0.00203

# input Which self-cleavage kobs at 10000 uM GlcN6P reading was recorded for the variant U45A A53G U55A U65A C67A ?
# output 0.000759

# input I am curious: what self-cleavage kobs at 10000 uM GlcN6P value has been reported for A14C A42G ?
# output 0.00788

# input Report self-cleavage kobs at 10000 uM GlcN6P for A53G G59U please.
# output 2.45e-05

# input Fill in: self-cleavage kobs at 10000 uM GlcN6P of A6U U55C is ___
# output 0.000148

# input So what does the record say about self-cleavage kobs at 10000 uM GlcN6P for G40C U45A U49G ?
# output 5.2e-05
